Would you kindly list pEC50 for each of these binders?
biological target: Biotinylated hPD-L1-Fc-Avi (human, UniProt Q9NZQ7 19-238); assay: cell-based RBA, blocking of hPD-L1-Fc-Avi binding to HEK293 hPD-1 cells
Sequence (Q9NZQ7 19-238 limits assumed): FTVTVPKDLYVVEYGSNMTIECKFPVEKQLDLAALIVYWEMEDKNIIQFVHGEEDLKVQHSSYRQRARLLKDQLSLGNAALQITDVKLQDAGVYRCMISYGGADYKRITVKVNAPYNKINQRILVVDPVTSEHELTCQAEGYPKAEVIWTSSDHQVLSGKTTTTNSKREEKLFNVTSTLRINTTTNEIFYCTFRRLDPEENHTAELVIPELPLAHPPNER
Answers are plain numbers, as −log10 of the molar value.

Dear colleague, could you please provide pEC50 for the binders listed below?
1. Fcab FS17-33-288 (designed binder) TCPPCPAPELLGGPSVFLFPPKPKDTLMISRTPEVTCVVVDVSHEDPEVKFNWYVDGVEVHNAKTKPREEQYNSTYRVVSVLTVLHQDWLNGKEYKCKVSNKALPAPIEKTISKAKGQPREPQVYTLPPSRDESGYWVSLTCLVKGFYPSDIVVEWESNGEPQYWAKTTPPVLDSDGSFFLYSKLTVSNWRWQIDDFSCSVMHEALHNHYTQKSLSLSPGK
2. Fcab FS17-33-289 (designed binder) TCPPCPAPELLGGPSVFLFPPKPKDTLMISRTPEVTCVVVDVSHEDPEVKFNWYVDGVEVHNAKTKPREEQYNSTYRVVSVLTVLHQDWLNGKEYKCKVSNKALPAPIEKTISKAKGQPREPQVYTLPPSRDESGYWVSLTCLVKGFYPSDIVVEWESNGEPQYWAKTTPPVLDSDGSFFLYSKLTVSNWRWQLDDFSCSVMHEALHNHYTQKSLSLSPGK
3. Fcab FS17-33-296 (designed binder) TCPPCPAPELLGGPSVFLFPPKPKDTLMISRTPEVTCVVVDVSHEDPEVKFNWYVDGVEVHNAKTKPREEQYNSTYRVVSVLTVLHQDWLNGKEYKCKVSNKALPAPIEKTISKAKGQPREPQVYTLPPSRDESGYWVSLTCLVKGFYPSDIVVEWESNGEPQYWAKTTPPVLDSDGSFFLYSKLTVSNWRWQVDDFSCSVMHEALHNHYTQKSLSLSPGK

[8.55, 8.00, 8.05]
